Every entry's value here was drawn from ChEMBL document CHEMBL1133808.

Recorded IC50, one value per entry.
Target: Integrin alpha-4/beta-1 (Homo sapiens, UniProt P05556+P13612)
Sequence (P05556 whole entry): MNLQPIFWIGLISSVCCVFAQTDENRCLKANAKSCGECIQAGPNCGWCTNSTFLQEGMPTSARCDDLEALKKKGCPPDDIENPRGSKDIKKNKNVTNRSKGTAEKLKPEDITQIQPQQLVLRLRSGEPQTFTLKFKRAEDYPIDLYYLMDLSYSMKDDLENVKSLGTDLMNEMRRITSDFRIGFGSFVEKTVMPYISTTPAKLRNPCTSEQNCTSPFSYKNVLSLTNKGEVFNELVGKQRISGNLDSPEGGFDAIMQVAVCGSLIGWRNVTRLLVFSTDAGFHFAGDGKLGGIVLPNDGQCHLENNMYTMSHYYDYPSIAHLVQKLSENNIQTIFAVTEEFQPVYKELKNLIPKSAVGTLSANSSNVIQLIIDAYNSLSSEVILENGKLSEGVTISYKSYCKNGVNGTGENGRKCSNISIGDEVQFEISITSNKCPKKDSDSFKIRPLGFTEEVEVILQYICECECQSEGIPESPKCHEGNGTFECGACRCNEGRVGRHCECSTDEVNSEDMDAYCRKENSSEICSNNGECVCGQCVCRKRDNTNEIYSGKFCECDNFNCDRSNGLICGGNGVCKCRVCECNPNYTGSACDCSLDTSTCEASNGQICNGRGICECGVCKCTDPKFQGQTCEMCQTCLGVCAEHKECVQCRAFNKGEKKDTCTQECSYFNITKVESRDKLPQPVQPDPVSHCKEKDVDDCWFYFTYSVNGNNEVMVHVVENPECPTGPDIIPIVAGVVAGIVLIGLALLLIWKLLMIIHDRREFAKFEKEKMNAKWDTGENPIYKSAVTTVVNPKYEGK
Sequence (P13612 whole entry): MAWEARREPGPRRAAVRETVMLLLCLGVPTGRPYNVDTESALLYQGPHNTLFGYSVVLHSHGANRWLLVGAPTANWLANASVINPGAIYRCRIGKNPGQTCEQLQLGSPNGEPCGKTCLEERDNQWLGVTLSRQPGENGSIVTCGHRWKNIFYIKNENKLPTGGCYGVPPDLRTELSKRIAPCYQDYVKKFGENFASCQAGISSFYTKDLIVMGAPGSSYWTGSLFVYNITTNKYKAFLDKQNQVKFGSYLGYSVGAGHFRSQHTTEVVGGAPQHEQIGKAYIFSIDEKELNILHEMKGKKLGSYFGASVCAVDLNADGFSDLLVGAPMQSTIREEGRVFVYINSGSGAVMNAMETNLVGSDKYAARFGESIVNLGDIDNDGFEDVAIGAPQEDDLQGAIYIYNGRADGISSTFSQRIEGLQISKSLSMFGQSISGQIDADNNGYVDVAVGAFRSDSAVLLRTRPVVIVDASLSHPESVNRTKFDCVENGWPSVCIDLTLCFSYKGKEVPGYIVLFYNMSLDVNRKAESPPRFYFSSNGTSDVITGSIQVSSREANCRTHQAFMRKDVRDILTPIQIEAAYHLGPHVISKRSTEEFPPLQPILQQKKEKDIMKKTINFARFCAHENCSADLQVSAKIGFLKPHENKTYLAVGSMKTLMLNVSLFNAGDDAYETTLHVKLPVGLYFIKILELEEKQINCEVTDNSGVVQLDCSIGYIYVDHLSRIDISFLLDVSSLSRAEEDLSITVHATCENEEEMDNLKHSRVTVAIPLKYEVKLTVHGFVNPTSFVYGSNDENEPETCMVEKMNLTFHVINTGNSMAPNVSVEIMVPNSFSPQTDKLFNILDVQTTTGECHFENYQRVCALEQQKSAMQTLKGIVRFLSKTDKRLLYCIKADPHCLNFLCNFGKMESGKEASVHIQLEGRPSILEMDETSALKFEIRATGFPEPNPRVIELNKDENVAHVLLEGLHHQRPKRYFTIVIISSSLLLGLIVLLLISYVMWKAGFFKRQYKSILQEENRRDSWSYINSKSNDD
Experiment: Antagonistic activity against VLA-4 integrin of human jurkat cells using [125I]VCAM-Ig as radioligand
Assay type: functional, cell-based

| Item smiles | Unit annotation | IC50 |
| --- | --- | --- |
| O=C(O)c1cccc(-c2ccc(C[C@H](NC(=O)[C@@H]3CCCN3S(=O)(=O)c3cc(Cl)cc(Cl)c3)C(=O)O)cc2)c1 | nM | 0.54 |
| O=C(O)[C@H](Cc1ccc2ccccc2c1)NC(=O)[C@@H]1CCCN1S(=O)(=O)c1cc(Cl)cc(Cl)c1 | nM | 0.5 |
| O=C(O)[C@H](Cc1ccc(-c2ccccc2)cc1)NC(=O)[C@@H]1CCCN1S(=O)(=O)c1cc(Cl)cc(Cl)c1 | nM | 0.63 |
| O=C(O)c1ccccc1-c1ccc(C[C@H](NC(=O)[C@@H]2CCCN2S(=O)(=O)c2cc(Cl)cc(Cl)c2)C(=O)O)cc1 | nM | 0.95 |

###

clearance overview
Assay: Plasma clearance in Sprague-Dawley rats
Assay type: ADME, organism-based
Conditions: rat, read-out: Clp

| Item smiles | Result comparator | clearance (mL/min/kg) |
| --- | --- | --- |
| COc1ccccc1-c1ccc(C[C@H](NC(=O)[C@]2(C)CCCN2S(=O)(=O)c2cc(Cl)cc(Cl)c2)C(=O)O)cc1 | = | 20 |
| C[C@@]1(C(=O)N[C@@H](Cc2ccc(-c3ccccn3)cc2)C(=O)O)CCCN1S(=O)(=O)c1cc(Cl)cc(Cl)c1 | = | 17 |
| COc1cccnc1-c1ccc(C[C@H](NC(=O)[C@]2(C)CCCN2S(=O)(=O)c2cc(Cl)cc(Cl)c2)C(=O)O)cc1 | = | 71 |
| N#Cc1ccccc1-c1ccc(C[C@H](NC(=O)[C@@H]2CCCN2S(=O)(=O)c2cc(Cl)cc(Cl)c2)C(=O)O)cc1 | = | 21 |
| O=C(O)[C@H](Cc1ccc2ccccc2c1)NC(=O)[C@@H]1CCCN1S(=O)(=O)c1cc(Cl)cc(Cl)c1 | = | 49 |
| COc1cccc(OC)c1-c1ccc(C[C@H](NC(=O)[C@@H]2CCN2S(=O)(=O)c2cc(Cl)cc(Cl)c2)C(=O)O)cc1 | > | 100 |
| COc1ccccc1-c1ccc(C[C@H](NC(=O)[C@@H]2CCCN2S(=O)(=O)c2cc(Cl)cc(Cl)c2)C(=O)O)cc1 | = | 39 |
| COc1cccc(OC)c1-c1ccc(C[C@H](NC(=O)[C@]2(C)CCN2S(=O)(=O)c2cc(Cl)cc(Cl)c2)C(=O)O)cc1 | > | 100 |
| COc1cccc(OC)c1-c1ccc(C[C@H](NC(=O)[C@]2(C)CCCN2S(=O)(=O)c2cc(Cl)cc(Cl)c2)C(=O)O)cc1 | > | 100 |

###

Target: Integrin alpha-4/beta-7 (Homo sapiens, UniProt P13612+P26010)
Sequence (P13612 whole entry): as above
Sequence (P26010 whole entry): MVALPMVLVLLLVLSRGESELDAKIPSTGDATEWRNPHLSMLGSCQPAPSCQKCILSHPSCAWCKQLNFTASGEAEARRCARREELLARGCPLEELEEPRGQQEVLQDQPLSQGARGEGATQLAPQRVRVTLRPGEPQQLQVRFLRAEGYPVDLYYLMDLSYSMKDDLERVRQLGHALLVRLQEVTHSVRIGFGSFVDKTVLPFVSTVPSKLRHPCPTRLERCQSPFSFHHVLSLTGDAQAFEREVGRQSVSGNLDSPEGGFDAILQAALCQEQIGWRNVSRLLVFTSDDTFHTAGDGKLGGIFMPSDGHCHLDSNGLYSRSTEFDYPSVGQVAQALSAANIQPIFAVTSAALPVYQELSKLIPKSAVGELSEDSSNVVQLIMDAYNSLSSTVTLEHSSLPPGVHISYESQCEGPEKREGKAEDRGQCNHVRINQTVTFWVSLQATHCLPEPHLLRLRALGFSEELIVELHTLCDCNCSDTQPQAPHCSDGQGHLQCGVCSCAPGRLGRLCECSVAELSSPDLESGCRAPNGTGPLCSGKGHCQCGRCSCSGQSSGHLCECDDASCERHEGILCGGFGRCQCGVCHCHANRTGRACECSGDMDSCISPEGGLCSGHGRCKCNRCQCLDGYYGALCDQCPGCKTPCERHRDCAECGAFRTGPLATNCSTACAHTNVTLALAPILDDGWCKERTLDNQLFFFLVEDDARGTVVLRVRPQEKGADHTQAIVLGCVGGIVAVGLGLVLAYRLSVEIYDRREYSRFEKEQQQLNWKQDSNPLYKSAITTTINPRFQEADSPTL
Assay: Inhibition of [125I]MAdCAM-Ig binding to alpha4-beta7 integrin of human RPMI-8866 cells
Format: cell-based
pIC50: −log10 of the molar value. Starred links: 1 amine or outer side, 2 acyl side, 3 side chain; linkers in the order of their positions; H or OH if unused. Non-standard residues stand in square brackets, D forms with d. Residues, ends and D or L forms follow the SMILES beside them. *: point of attachment. X1 = O=C(Cc1ccc(N[*:1])cc1)[*:2]; NH(2-Me-phenyl) = Cc1ccccc1N*; CO = O=C([*:1])[*:2]
# cutoff 7 applies to pIC50; >= gives yes (1), < gives no (0)

| Molecule | Label value |
| --- | --- |
| Cc1ccccc1NC(=O)Nc1ccc(CC(=O)N[C@@H](CC(C)C)C(=O)N[C@@H](CC(=O)O)C(=O)N[C@H](C(=O)N2CCC[C@H]2C(=O)O)C(C)C)cc1 ({NH(2-Me-phenyl)-CO}-[X1]LDVP-OH) | no (0) |
| C[C@@]1(C(=O)N[C@@H](Cc2ccc(-c3c(O)cccc3O)cc2)C(=O)O)CCCN1S(=O)(=O)c1cc(Cl)cc(Cl)c1 | no (0) |
| COc1cccc(OC)c1-c1ccc(C[C@H](NC(=O)[C@@H]2CCN2S(=O)(=O)c2cc(Cl)cc(Cl)c2)C(=O)O)cc1 | yes (1) |
| COc1cccnc1-c1ccc(C[C@H](NC(=O)[C@]2(C)CCCN2S(=O)(=O)c2cc(Cl)cc(Cl)c2)C(=O)O)cc1 | yes (1) |
| COc1cccc(OC)c1-c1ccc(C[C@H](NC(=O)[C@]2(C)CCCN2S(=O)(=O)c2cc(Cl)cc(Cl)c2)C(=O)O)cc1 | yes (1) |
| C[C@@]1(C(=O)N[C@@H](Cc2ccc(-c3nc[nH]n3)cc2)C(=O)O)CCCN1S(=O)(=O)c1cc(Cl)cc(Cl)c1 | no (0) |
| COc1cccc(OC)c1-c1ccc(C[C@H](NC(=O)[C@]2(C)CCN2S(=O)(=O)c2cc(Cl)cc(Cl)c2)C(=O)O)cc1 | yes (1) |
| CC(C)C(=O)Oc1cccc(OC(=O)C(C)C)c1-c1ccc(C[C@H](NC(=O)[C@]2(C)CCCN2S(=O)(=O)c2cc(Cl)cc(Cl)c2)C(=O)O)cc1 | no (0) |
